experiment: human hepatoma cell viability loss – ATP luminescence, cytotoxicity control for P. falciparum antimalarial project, primary screen (AID 2303); conditions: HepG2 viability, 24-48 h, at 10 µM, hits give high values;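 note: 0% = DMSO wells and 100% = digitonin-killed cells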
Could you please mark label 1 for values of inhibition below 20% and label 0 for values at or above it?

COc1c(Br)cc(Br)cc1-c1ccc(CN2CC3CCC2CC3)[nH]1
label 0

Q: Please indicate whether the reported inhibition of COc1ccc(NC(C)C(=O)Nc2ccc(Br)cc2)cc1S(=O)(=O)N1CCCCC1 (stereo unspecified) is strictly below 20%.
Ans: label 1

Q: # TODO verify inhibition < 20% strictly for this compound: `O=C(CN1CCC(NCc2cnc(-c3ccc(Cl)cc3)[nH]2)CC1)N1CCc2ccccc21`
Ans: label 1

Q: # check: inhibition < 20% for `COc1ccc(CNc2nccc3ccc(-c4ccc5nccn5c4)cc23)cc1`
Ans: label 1

Q: Lab note: inhibition threshold 20%. Does this compound come in strictly under it? `COc1ccccc1-c1[nH]c2ccccc2c1CN1CCC(c2c(C)cccc2C)CC1`
Ans: label 0

Q: # strict comparison: is reported inhibition < 20%? input = `COc1cc(Cc2cnc(N)nc2N)cc(OCCCCCC(N)=O)c1OC`
Ans: label 1

Q: Report whether reported inhibition is lower than 20% (strictly) for Cc1ccccc1C1CCN(C2CCC(NC(=O)/C=C/c3ccccc3C(F)(F)F)CC2)CC1 (stereo unspecified)
Ans: label 0
